- Tested on: HOP-92 NSCLC
- experiment.notes: NCI tumour cell line growth inhibition, 48 h

{"columns": ["compound", "comparative.sign", "TGI [µM]"],
 "data": [
  ["CC1(SCC(N)C(=O)O)CC(=O)NC1=O (stereo not given)", ">", 100],
  ["Cn1cc(-c2ccc(-c3cn(C)c4ncccc34)[nH]2)c2cccnc21", "=", 2.13],
  ["CC(C)(C)OC(=O)CCC1NC(=O)[C@@H]2Cc3c([nH]c4ccccc34)C(C3CCCCC3)N2C1=O (stereo not given in full)", "=", 78.3],
  ["COc1cc(/C=C2\\CCC(C)C3=C(c4cc(OC)c(OC)c(OC)c4)C(C#N)=C(N)OC32)cc(OC)c1OC (stereo not given)", ">", 31.3],
  ["COc1cc(C2CC(C)(N3CCCC3)Oc3cc4c(cc32)OCO4)cc(OC)c1OC (stereo not given)", ">", 100],
  ["CC(C)(C)c1ccc(-n2c3nc(=O)n(-c4ccccc4C(F)(F)F)c(=O)c-3cc3ccccc32)cc1", "=", 51.7],
  ["O=C(Cc1nc2cccnc2nc1/C=C(\\O)c1ccccc1)c1ccccc1", "=", 59],
  ["CC#C[C@@]1(O)CCCCC1O (stereo not given in full)", ">", 100],
  ["Cc1cc(C)n(-c2nc3ccccc3c(=O)[nH]2)n1", ">", 68.3],
  ["Cc1ccc2nc3ccccc3c(NCc3ccccc3)c2c1", "=", 7.56]
]}
